experimental-system: Albumin (Bos taurus) (UniProt P02769)
Sequence (P02769 whole entry, looked up): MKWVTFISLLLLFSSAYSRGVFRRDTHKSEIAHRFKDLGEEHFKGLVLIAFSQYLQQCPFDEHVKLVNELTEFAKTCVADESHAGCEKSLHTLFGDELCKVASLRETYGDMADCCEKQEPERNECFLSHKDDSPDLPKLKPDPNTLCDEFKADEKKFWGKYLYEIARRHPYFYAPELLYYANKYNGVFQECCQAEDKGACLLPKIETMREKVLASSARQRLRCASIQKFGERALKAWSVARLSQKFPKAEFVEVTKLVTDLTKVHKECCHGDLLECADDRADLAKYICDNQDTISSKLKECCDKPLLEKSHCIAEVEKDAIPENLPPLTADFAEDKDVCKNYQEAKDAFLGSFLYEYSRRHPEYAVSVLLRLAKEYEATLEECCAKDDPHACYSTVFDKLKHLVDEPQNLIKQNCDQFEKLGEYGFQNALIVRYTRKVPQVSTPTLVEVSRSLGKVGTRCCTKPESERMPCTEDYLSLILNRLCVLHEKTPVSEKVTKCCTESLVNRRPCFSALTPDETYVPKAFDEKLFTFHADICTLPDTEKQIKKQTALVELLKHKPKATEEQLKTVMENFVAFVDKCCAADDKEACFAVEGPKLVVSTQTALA
assay-name: bovine serum albumin binders on microarray, profiling panel, artefact control for SMM control protein annotation, biochemical, small-molecule microarray, Alexa647 label, 635/667 nm fluorescence (AID 1118);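 note: score merges 667 nm emission intensity and signal-to-noise per printed compound spot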
condition-label: BSA-A647 binding, fluorescence 635 nm, higher = more signal
measurement-kind: composite z-score
The response must contain the number and no unit.

Prompt: What composite z-score appears in the records for this molecule with Albumin (Bos taurus) (UniProt P02769)? COc1ccc([Si](C)(C)[C@H]2[C@H](CC(=O)N3CCC[C@H]3CO)O[C@@]3(C(=O)N(Cc4ccc(N5CCC5=O)cc4)c4ccccc43)[C@@H]2C)cc1
Completion: 0.669

Prompt: Fill in the recorded composite z-score for this molecule, with Albumin (Bos taurus) (UniProt P02769) as test system: O=C(O)[C@@H]1C[C@@H]2C(=O)N3CCC[C@H]3C(=O)N2[C@@H]1c1cccc(OCCO)c1
Completion: 0.778

Prompt: GET /values?readout=composite z-score&system=Albumin (Bos taurus) (UniProt P02769)&item= CCOC(=O)C[C@H]1[C@H](OC(=O)c2ccc(-c3ccccc3)cc2)[C@@H](NC(=O)Cc2ccc(OC)cc2)c2cc(OCCCO)ccc2N1C(=O)Cc1ccc(OC)cc1
Completion: 0.793

Prompt: Return composite z-score measured with Albumin (Bos taurus) (UniProt P02769) given this molecule: C=C(C(=O)CC[C@@H](OC(=O)c1ccccc1-c1ccccc1C(=O)O)c1ccccc1OCCO)C(C)C
Completion: 0.287

Prompt: # value lookup — system Albumin (Bos taurus) (UniProt P02769), readout composite z-score, item C=C(CCCC)/C(=C/C[C@H](OC(C)=O)c1ccc(OCCO)cc1)c1cc(C(=O)OC)ccc1OC
Completion: 0.891

Prompt: Given the entry C=C(COC)/C(=C/C[C@@H](OC(=O)c1ccncc1)c1ccccc1OCCO)c1cc(C(=O)OC)ccc1OC , what composite z-score was observed with Albumin (Bos taurus) (UniProt P02769)?
Completion: 0.247

Prompt: State its composite z-score on Albumin (Bos taurus) (UniProt P02769): C[C@]1(C(=O)NCC(F)(F)F)c2ccccc2C(=O)N(Cc2ccccc2)[C@H]1c1ccc(CO)cc1
Completion: -1.14

Prompt: Lab note: need composite z-score with Albumin (Bos taurus) (UniProt P02769) for entry O=C1[C@@]23C=C(Br)[C@H](C[C@@H]2COC3)[C@@]12CO2 , please look it up.
Completion: -0.512

Prompt: Identify the measured composite z-score of COCCOC(=O)N1C(=O)[C@@]2(c3cc(C#CCC(C(=O)OC)C(=O)OC)ccc31)[C@H](C(=O)NC[C@H](O)c1ccccc1)[C@H]1C(=O)O[C@H](c3ccccc3)[C@H](c3ccccc3)N1[C@@H]2c1ccc(O)cc1 for Albumin (Bos taurus) (UniProt P02769).
Completion: 0.661

Prompt: Query for Albumin (Bos taurus) (UniProt P02769): what composite z-score does the record show for COc1ccc(NC(=O)O[C@H]2[C@@H]3OC(=O)[C@H](Cc4cccc(Br)c4)C/C=C/C[C@@H](Cc4cccc(Br)c4)C(=O)O[C@H]3[C@@H](OC)O[C@@H]2CO)cc1 ?
Completion: 0.259

Prompt: Lookup: composite z-score / Albumin (Bos taurus) (UniProt P02769) / COc1ccc(C(O)C2C=CC3C(=O)N(c4ccccc4)C(=O)C3N2Nc2ccc(C(C)C)cc2)c2ccccc12 (centres undefined)
Completion: 0.916

Prompt: Write down the reported composite z-score of C=C(COC)C(=O)CC[C@H](OC(C)=O)c1ccc(OCCO)cc1 , test system: Albumin (Bos taurus) (UniProt P02769).
Completion: -0.0592

Prompt: API: value(readout= composite z-score, system= Albumin (Bos taurus) (UniProt P02769), query= COCCOC(=O)N1C(=O)[C@@]2(c3cc(C#CCC(C(=O)OC)C(=O)OC)ccc31)[C@H](C(=O)NC[C@H](O)c1ccccc1)[C@H]1C(=O)O[C@H](c3ccccc3)[C@H](c3ccccc3)N1[C@@H]2c1ccc(OCCO)cc1 )
Completion: 0.45

Prompt: So what composite z-score did COCCCNC(=O)[C@@]1(Sc2ccc(C)cc2)CC(=O)N(Cc2ccccc2Cl)[C@@H]1c1ccc(CO)cc1I get with Albumin (Bos taurus) (UniProt P02769)?
Completion: 0.7
